Numbered stars: 1 amine (or outer) side, 2 acyl side, 3 side chain; on linkers, the order of the positions; unused ones are H or OH. Bridge positions count the residues as written; N and C are the ends. Square brackets hold non-standard residues; d marks the D form. Peptide text beside a SMILES is read from it. X1 = CC[C@H](C)[C@@H](N[*:1])[C@@H](O)CC(=O)O[C@H](C(=O)[C@H](C)C(=O)[*:2])C(C)C; NMeY = CN[C@@H](Cc1ccc(O)cc1)C(=O)O; dNMeL = CN[C@H](CC(C)C)C(=O)O
Notes on BHK obtained with BHK = Baby hamster kidney cells.

Example compounds with recorded BHK:
{"compound": "CC[C@H](C)[C@H]1NC(=O)[C@@H](NC(=O)[C@@H](CC(C)C)N(C)C(=O)[C@@H](N)CC(C)C)[C@@H](C)OC(=O)[C@H](Cc2ccc(OC)cc2)N(C)C(=O)[C@@H]2CCCN2C(=O)[C@H](CC(C)C)NC(=O)[C@@H](C)C(=O)[C@H](C(C)C)OC(=O)C[C@@H]1O [N-(L-Leu)Didemnin A (99), N-(L-Leu)didemnin A] (H-L[dNMeL]T[X1]LP[NMeY](Me); ester 3-C)", "BHK": "0, PT"}
{"compound": "CC[C@H](C)[C@H]1NC(=O)[C@@H](NC(=O)[C@@H](CC(C)C)NC)[C@@H](C)OC(=O)[C@H](Cc2ccc(OC)cc2)N(C)C(=O)[C@@H]2CCCN2C(=O)[C@H](CC(C)C)NC(=O)[C@@H](C)C(=O)[C@H](C(C)C)OC(=O)C[C@@H]1OC(C)=O", "BHK": "0, PT"}

Please look up its BHK: CC[C@H](C)[C@H]1NC(=O)[C@@H](NC(=O)[C@@H](CC(C)C)N(C)C(=O)[C@@H]2CCCN2)[C@@H](C)OC(=O)[C@H](Cc2ccc(OC)cc2)N(C)C(=O)[C@@H]2CCCN2C(=O)[C@H](CC(C)C)NC(=O)[C@@H](C)C(=O)[C@H](C(C)C)OC(=O)C[C@@H]1O [N-(L-Pro)Didemnin A (100), N-(L-Prolyl) didemnin A] (H-P[dNMeL]T[X1]LP[NMeY](Me); ester 3-C)
0, PT

---

- Test system: L1210 murine leukemia cells
- stated_conditions: Table 9
Numbered stars: 1 amine (or outer) side, 2 acyl side, 3 side chain; on linkers, the order of the positions; unused ones are H or OH. Bridge positions count the residues as written; N and C are the ends. Square brackets hold non-standard residues; d marks the D form. Peptide text beside a SMILES is read from it. * marks the point of attachment. X1 = CC[C@H](C)[C@@H](N[*:1])[C@@H](O)CC(=O)O[C@H](C(=O)[C@H](C)C(=O)[*:2])C(C)C; NMeY = CN[C@@H](Cc1ccc(O)cc1)C(=O)O; dNMeL = CN[C@H](CC(C)C)C(=O)O; Propionyl = CCC(=O)*
reported_property: Cytotoxicity L1210 IC50 (ng/mL)
Write it as a number; the unit ng/mL goes unstated.

{"compound": "COc1ccc(C[C@H]2C(=O)O[C@H](C)[C@H](NC(=O)C(CC(C)C)N(C)C(=O)[C@@H]3CCCN3C(=O)[C@H](C)O)C(=O)N[C@H](C(C)C)[C@@H](O)CC(=O)O[C@@H](C(C)C)C(=O)[C@H](C)C(=O)N[C@@H](CC(C)C)C(=O)N3CCC[C@H]3C(=O)N2C)cc1 (some centres unmarked)", "number": 1}

// below: Cytotoxicity L1210 IC50 requested for another compound
Please look up its Cytotoxicity L1210 IC50: CCC(=O)N1CCC[C@H]1C(=O)N(C)[C@H](CC(C)C)C(=O)N[C@@H]1C(=O)N[C@H]([C@@H](C)CC)[C@@H](O)CC(=O)O[C@@H](C(C)C)C(=O)[C@H](C)C(=O)N[C@@H](CC(C)C)C(=O)N2CCC[C@H]2C(=O)N(C)[C@@H](Cc2ccc(OC)cc2)C(=O)O[C@@H]1C [[Propionyl^9] Didemnin B (104), [Propionyl^9]didemnin B] (Propionyl-P[dNMeL]T[X1]LP[NMeY](Me); ester 3-C)
0.2

---

# Lookup of reported Cytotoxicity percent L1210 inhibition keyed by entry
- System: L1210
- stated_conditions: dose 25 ng/mL
Numbered stars: 1 amine (or outer) side, 2 acyl side, 3 side chain; on linkers, the order of the positions; unused ones are H or OH. Bridge positions count the residues as written; N and C are the ends. Square brackets hold non-standard residues; d marks the D form. Peptide text beside a SMILES is read from it. * marks the point of attachment. X1 = CC[C@H](C)[C@@H](N[*:1])[C@@H](O)CC(=O)O[C@H](C(=O)[C@H](C)C(=O)[*:2])C(C)C; X3 = CC[C@H](C)[C@H](N[*:1])[C@@H](O)CC(=O)O[C@H](C(=O)[C@H](C)C(=O)[*:2])C(C)C; NMeY = CN[C@@H](Cc1ccc(O)cc1)C(=O)O; aThr = C[C@H](O)[C@H](N)C(=O)O; dNMeL = CN[C@H](CC(C)C)C(=O)O; Pentanoyl = CCCCC(=O)*; Propionyl = CCC(=O)*
Write it as a number; the unit % goes unstated.

{"compound": "CCCCC(=O)N(C)[C@H](CC(C)C)C(=O)N[C@@H]1C(=O)N[C@H]([C@@H](C)CC)[C@@H](O)CC(=O)O[C@@H](C(C)C)C(=O)[C@H](C)C(=O)N[C@@H](CC(C)C)C(=O)N2CCC[C@H]2C(=O)N(C)[C@@H](Cc2ccc(OC)cc2)C(=O)O[C@@H]1C [N^a -Pentanoyl-, N-pentanoyl didemnin A] (Pentanoyl-[dNMeL]T[X1]LP[NMeY](Me); ester 2-C)", "assayed_system": "L1210", "number": 91}
{"compound": "CC[C@H](C)[C@H]1NC(=O)[C@@H](NC(=O)[C@@H](CC(C)C)N(C)C(=O)[C@@H]2CCCN2C(=O)C(C)O)[C@@H](C)OC(=O)[C@H](Cc2ccc(OC)cc2)N(C)C(=O)[C@@H]2CCCN2C(=O)[C@H](CC(C)C)NC(=O)[C@@H](C)C(=O)[C@H](C(C)C)OC(=O)C[C@@H]1O (stereo partly shown) [Didemnin B (17), Didemnin B, reference compound]", "assayed_system": "L1210", "number": 95}
{"compound": "CC[C@H](C)[C@@H]1NC(=O)[C@@H](NC(=O)[C@@H](CC(C)C)N(C)C(C)=O)[C@H](C)OC(=O)[C@H](Cc2ccc(OC)cc2)N(C)C(=O)[C@@H]2CCCN2C(=O)[C@H](CC(C)C)NC(=O)[C@@H](C)C(=O)[C@H](C(C)C)OC(=O)C[C@@H]1O [N-Acetyldidemnin A (54), N-Acetyl didemnin A] (Ac-[dNMeL][aThr][X3]LP[NMeY](Me); ester 2-C)", "assayed_system": "L1210", "number": 94}

Please look up its Cytotoxicity percent L1210 inhibition: CCC(=O)N(C)[C@H](CC(C)C)C(=O)N[C@@H]1C(=O)N[C@H]([C@@H](C)CC)[C@@H](O)CC(=O)O[C@@H](C(C)C)C(=O)[C@H](C)C(=O)N[C@@H](CC(C)C)C(=O)N2CCC[C@H]2C(=O)N(C)[C@@H](Cc2ccc(OC)cc2)C(=O)O[C@@H]1C [(N-Propionyl)Didemnin A (98), N-propionyl-didemnin A] (Propionyl-[dNMeL]T[X1]LP[NMeY](Me); ester 2-C)
95

---

- Tested on: L1210 murine leukemia cells
- stated_conditions: Table 9
Numbered stars: 1 amine (or outer) side, 2 acyl side, 3 side chain; on linkers, the order of the positions; unused ones are H or OH. Bridge positions count the residues as written; N and C are the ends. Square brackets hold non-standard residues; d marks the D form. Peptide text beside a SMILES is read from it. * marks the point of attachment. X1 = CC[C@H](C)[C@@H](N[*:1])[C@@H](O)CC(=O)O[C@H](C(=O)[C@H](C)C(=O)[*:2])C(C)C; NMeY = CN[C@@H](Cc1ccc(O)cc1)C(=O)O; dNMeL = CN[C@H](CC(C)C)C(=O)O; pGlu = O=C1CC[C@@H](C(=O)O)N1; Isobutyryl = CC(C)C(=O)*; Lac = C[C@H](O)C(=O)O
# Lookup of reported Cytotoxicity L1210 IC50 keyed by entry
Write it as a number; the unit ng/mL goes unstated.

Example compounds with recorded Cytotoxicity L1210 IC50:
{"compound": "CC[C@H](C)[C@H]1NC(=O)[C@@H](NC(=O)[C@@H](CC(C)C)N(C)C(=O)[C@@H]2CCCN2C(=O)C(C)C)[C@@H](C)OC(=O)[C@H](Cc2ccc(OC)cc2)N(C)C(=O)[C@@H]2CCCN2C(=O)[C@H](CC(C)C)NC(=O)[C@@H](C)C(=O)[C@H](C(C)C)OC(=O)C[C@@H]1O [[Isobutyryl^9]didemnin B] (Isobutyryl-P[dNMeL]T[X1]LP[NMeY](Me); ester 3-C)", "reported_property": "Cytotoxicity L1210 IC50", "unit_label": "ng/mL", "number": 0.2}
{"compound": "CC[C@H](C)[C@H]1NC(=O)[C@@H](NC(=O)[C@@H](CC(C)C)N(C)C(=O)[C@@H]2CCCN2C(=O)[C@H](C)OC(=O)[C@@H]2CCC(=O)N2)[C@@H](C)OC(=O)[C@H](Cc2ccc(OC)cc2)N(C)C(=O)[C@@H]2CCCN2C(=O)[C@H](CC(C)C)NC(=O)[C@@H](C)C(=O)[C@H](C(C)C)OC(=O)C[C@@H]1O [pGlu-didemnin B (113), O-Pyroglutamyldidemnin B] ([pGlu][Lac]P[dNMeL]T[X1]LP[NMeY](Me); ester 5-C)", "reported_property": "Cytotoxicity L1210 IC50", "unit_label": "ng/mL", "number": 0.4}
{"compound": "CC[C@H](C)[C@H]1NC(=O)[C@@H](NC(=O)[C@@H](CC(C)C)N(C)C(=O)[C@@H]2CCCN2)[C@@H](C)OC(=O)[C@H](Cc2ccc(OC)cc2)N(C)C(=O)[C@@H]2CCCN2C(=O)[C@H](CC(C)C)NC(=O)[C@@H](C)C(=O)[C@H](C(C)C)OC(=O)C[C@@H]1O [N-(L-Pro)Didemnin A (100), N-(L-Prolyl) didemnin A] (H-P[dNMeL]T[X1]LP[NMeY](Me); ester 3-C)", "reported_property": "Cytotoxicity L1210 IC50", "unit_label": "ng/mL", "number": 4}

// below: Cytotoxicity L1210 IC50 requested for another compound
Please look up its Cytotoxicity L1210 IC50: CC[C@H](C)[C@H]1NC(=O)[C@@H](NC(=O)[C@@H](CC(C)C)NC)[C@@H](C)OC(=O)[C@H](Cc2ccc(OC)cc2)N(C)C(=O)[C@@H]2CCCN2C(=O)[C@H](CC(C)C)NC(=O)[C@@H](C)C(=O)[C@H](C(C)C)OC(=O)C[C@@H]1O [Didemnin A (1), Didemnin A, reference compound] (H-[dNMeL]T[X1]LP[NMeY](Me); ester 2-C)
30
